- target-entity: T1, human MSLN-R3 protein (human, UniProt Q13421 487-598)
- T1 construct: also called hMSLN-R3
- T1 sequence (Q13421 495-606, form in doubt): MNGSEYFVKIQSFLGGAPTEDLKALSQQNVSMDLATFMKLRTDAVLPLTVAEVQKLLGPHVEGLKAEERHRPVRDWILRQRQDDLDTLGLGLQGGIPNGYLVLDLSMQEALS
- assay-comment: ELISA on coated antigen, antibody 0.01 nM
assay-readout: OD450 (OD450)
Quick reminder: number only, in OD450, skip the unit.

Reference set, count: 2
# binder, test-value
records = [
    ("F7.44.20-H16 (scFv, not shown: small tags and cut ends, also called S009-F7.44.20 humanized antibody VH2a + VL4) scFv: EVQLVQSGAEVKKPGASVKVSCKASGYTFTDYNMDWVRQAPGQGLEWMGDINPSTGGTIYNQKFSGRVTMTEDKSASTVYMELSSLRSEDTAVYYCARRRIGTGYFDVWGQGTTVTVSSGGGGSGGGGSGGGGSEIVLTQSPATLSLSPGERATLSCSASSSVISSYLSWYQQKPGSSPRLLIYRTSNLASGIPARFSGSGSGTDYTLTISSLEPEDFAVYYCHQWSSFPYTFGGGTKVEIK", 0.06),
    ("F7.44.20-H1 (scFv, not shown: small tags and cut ends, also called S009-F7.44.20 humanized antibody VH1 + VL1) scFv: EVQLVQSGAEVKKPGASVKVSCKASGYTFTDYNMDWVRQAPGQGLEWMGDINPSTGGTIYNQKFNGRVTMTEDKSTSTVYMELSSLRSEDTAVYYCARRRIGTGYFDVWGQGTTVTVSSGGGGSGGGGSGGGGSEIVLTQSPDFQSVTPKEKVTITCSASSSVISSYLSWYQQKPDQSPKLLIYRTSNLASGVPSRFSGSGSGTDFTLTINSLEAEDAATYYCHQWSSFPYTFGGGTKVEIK", 0.06),
]

Request: For the binder shown here, F7.44.20-H13 (scFv, not shown: small tags and cut ends, also called S009-F7.44.20 humanized antibody VH2a + VL1) scFv: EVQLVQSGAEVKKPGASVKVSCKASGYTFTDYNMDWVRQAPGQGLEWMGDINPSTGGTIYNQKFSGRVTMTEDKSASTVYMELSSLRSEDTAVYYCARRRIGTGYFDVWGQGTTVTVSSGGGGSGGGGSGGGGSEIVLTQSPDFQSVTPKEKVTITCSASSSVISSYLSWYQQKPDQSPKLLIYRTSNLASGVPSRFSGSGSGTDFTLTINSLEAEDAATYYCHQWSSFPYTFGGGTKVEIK , give the reported OD450.
Result: 0.05

Sourced from patent US20250250357A1
